koff overview
# assayed_system: human serum-derived IgG polyclonal antibody (#I4506; Sigma-Aldrich) (human)
# test_method_notes: SPR, lysate, human IgG chip
Expressed in s⁻¹, but write only the number.

R1-7 (scFv, not shown: small tags and cut ends) scFv: QSLEESGGRLVTPGTPLTLTCTVSGIDLRRYAMGWVRQAPGKGLQWIGIIASGNTDYASWAKGRFTISATSTTVDLKITSPTTEDTATYFCARYSGDNGGTLNLWGPGTLVTVTSGGGGSGGGGSGGGGSELVMTQTAASVSEPVGGTVTIKCQASQSISSYLAWYQQKPGQPPKLLIYAASNLASGVSSRFKGSGSGTEFTLTISDLECADAATYYCQSYYSISSYGNTFGGGTEVEITGS: 0.00175
R1-27 (scFv, not shown: small tags and cut ends) scFv: QQQLMESGGGLVTPGTPLTLTCTVSGIDLRRYAMGWVRQAPGKGLQWIGIIASGNTDYASWAKGRFTISATSTTVDLKITSSTTEDTATYFCARYSGDNGGTLNLWGPGTLATVTTGGGGSGGGGSGGGGSELVMTQTAASVSEPVGGTVTIKCQASEHIRNYLAWYQQKPGQPPKLLIYTTSNLASGVPSRFSGSGSGTEYTLTISDLECADAATYYCQNYYDISTYGNTFGGGTEVDVKGS: 0.000859
R3-75 (scFv, not shown: small tags and cut ends) scFv: QSVKESGGRLVTPGTPLTLTCTVSGIDLSSNAMSWVRQAPGEGLEWIGTISTVGKTYFASWAKGRFTISKTSTTVDLRITSPTTEDTATYFCATRYDSYGYAYNYWFGTLWGPGTLVTVTSGGGGSGGGGSGGGGSELDLTQTPPSVSGAVGGTVTIKCQASENINSELAWYQQKPGQRPKLLIYDASKLASGVPSRFSGSGSGTEYTLTISGMQCDDAATYYCQSTYYDGNYVYAFGGGTEVDVTRS: 0.000278

Query binder follows.
Value lookup for koff; key = R3-8 (scFv, not shown: small tags and cut ends) scFv: QSLEESGGRLVTPGTPLTLTCTVSGIDLSSNAMTWVRQAPGEGLEWIGTISTGGSTYFASWAKGRFTISKTSTTVDLKITSPTTEDTATYFCATRYDSYGYAYNYWFGTLWGPGTLVTVTSGGGGSGGGGSGGGGSELVMTQTAASVSEPVGGTVTINCQASQSISDELAWYQQKPGQRPKLLIYDASDLASGVPSRFSGSGSGTEFTLTISGVQCDDAATYYCQSAYYDGRYVYAFGGGTEVEVTGS
0.00088
